SYSTEM_NAME: CDK2/Cyclin E1 complex (Homo sapiens, UniProt P24941)
METHOD: CDK2 inhibition assay (Caliper/LabChip EZ Reader kinase assay)
Type: biochemical
CONDITION_PARAMETERS: Table 1; CDK2/Cyclin E1 0.5 nM, ATP 2 mM, 35 min at 27° C.
pIC50: −log10 of the molar value.
// values below are reported pIC50

As a guide, the following entries are already answered.
CCc1cnc(-c2c[nH]c3ncc(F)cc23)nc1N[C@H]1CCCNC1
< 5.30
Fc1cccc(-c2ccc3c(-c4nc(N[C@H]5CCCNC5)ncc4C(F)(F)F)c[nH]c3c2)c1
< 5.30
Cc1c(-c2ccc3c(-c4nc(N[C@H]5CCCNC5)ncc4C(F)(F)F)c[nH]c3c2)c[nH]c(=O)c1C#N
5.30 to 6.70
CNC(=O)c1cccc2c(-c3nc(N[C@H]4CCCNC4)ncc3C(F)(F)F)cn(COC)c12
< 5.30
Clc1cnc(N[C@H]2CN3CCC2CC3)nc1-c1c[nH]c2ccccc12
< 5.30
FC(F)(F)c1cnc(N[C@@H]2CNC[C@H](c3nnc4ccccn34)C2)nc1-c1c[nH]c2ccccc12 (relative stereo) [Compound 266]
5.30 to 6.70

Kindly note: CDK2/Cyclin E1 complex (Homo sapiens, UniProt P24941), CCS(=O)(=O)c1cccc2c(-c3nc(N[C@H]4CCCNC4)ncc3C(F)(F)F)c[nH]c12 , pIC50 value reported: 5.30 to 6.70
